inhibition at 25 µM values, listed per item
Molecular target: HCMV polymerase (Human cytomegalovirus, UniProt P08546)
Construct: made in house; host or cells: SF-9 insect cells infected with recombinant baculovirus
Sequence (P08546 whole entry): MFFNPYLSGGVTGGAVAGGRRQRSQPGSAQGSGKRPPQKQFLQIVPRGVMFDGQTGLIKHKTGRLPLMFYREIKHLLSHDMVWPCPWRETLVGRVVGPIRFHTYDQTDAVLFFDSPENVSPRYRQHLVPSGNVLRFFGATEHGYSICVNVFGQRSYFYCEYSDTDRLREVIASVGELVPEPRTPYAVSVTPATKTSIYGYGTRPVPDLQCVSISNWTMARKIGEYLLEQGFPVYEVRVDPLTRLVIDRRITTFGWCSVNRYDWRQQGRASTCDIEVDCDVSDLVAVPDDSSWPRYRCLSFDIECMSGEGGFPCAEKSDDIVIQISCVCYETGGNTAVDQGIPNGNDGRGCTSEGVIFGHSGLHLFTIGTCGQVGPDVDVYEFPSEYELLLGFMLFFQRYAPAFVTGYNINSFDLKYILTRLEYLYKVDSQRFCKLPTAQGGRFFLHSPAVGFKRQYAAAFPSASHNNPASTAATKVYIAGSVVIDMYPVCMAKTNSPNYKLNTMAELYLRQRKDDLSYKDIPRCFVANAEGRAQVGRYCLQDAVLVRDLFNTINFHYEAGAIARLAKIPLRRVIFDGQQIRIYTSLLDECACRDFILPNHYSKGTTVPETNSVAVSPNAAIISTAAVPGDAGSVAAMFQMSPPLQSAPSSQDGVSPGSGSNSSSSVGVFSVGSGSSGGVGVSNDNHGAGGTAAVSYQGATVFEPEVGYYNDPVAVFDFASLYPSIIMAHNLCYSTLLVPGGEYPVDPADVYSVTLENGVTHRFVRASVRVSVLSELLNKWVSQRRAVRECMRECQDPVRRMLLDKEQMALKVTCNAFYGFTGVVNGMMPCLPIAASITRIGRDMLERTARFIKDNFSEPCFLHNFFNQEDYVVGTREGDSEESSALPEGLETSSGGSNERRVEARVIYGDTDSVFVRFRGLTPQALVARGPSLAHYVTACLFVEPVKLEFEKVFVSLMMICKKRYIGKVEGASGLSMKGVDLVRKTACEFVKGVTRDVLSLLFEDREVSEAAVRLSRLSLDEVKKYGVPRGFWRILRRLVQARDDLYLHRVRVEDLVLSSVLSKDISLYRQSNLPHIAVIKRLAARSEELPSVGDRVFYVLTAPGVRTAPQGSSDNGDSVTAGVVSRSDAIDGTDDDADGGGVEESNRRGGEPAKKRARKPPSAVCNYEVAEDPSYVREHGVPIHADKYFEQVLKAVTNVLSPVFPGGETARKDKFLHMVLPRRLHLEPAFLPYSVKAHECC
Assay: HCMV polymerase assay (scintillation proximity assay)
Assay type: biochemical
Conditions: percentage of inhibition at 25 μM concentration in CMV polymerase assay
Description: The compounds of the present invention are tested in an polymerase assay to show activity described below, which is indicative of a compound's activity and thus of its use as an anti-viral agent. […]

{"columns": ["molecule", "inhibition at 25 µM"],
 "data": [
  ["COc1ccc(CNc2nnc(NC(=O)c3c(Cl)cccc3Cl)s2)cc1OC [compound 280]", "37.3%"],
  ["O=C(Nc1nnc(NCC(c2ccccc2)c2ccccc2)s1)c1c(Cl)cccc1Cl [compound 56]", "77.4%"],
  ["CC(C)c1cc(C(C)C)c(C(=O)Nc2nnc(NCCc3c[nH]c4ccccc34)s2)c(C(C)C)c1 [compound 219]", "43.6%"],
  ["O=C(/C=C/c1ccccc1Cl)Nc1nnc(NCc2ccccn2)s1 [compound 161]", "51.9%"],
  ["O=C(/C=C/c1ccccc1)Nc1nnc(NCCCNC2CCCCC2)s1 [compound 124]", "59.2%"],
  ["O=C(/C=C/c1ccccc1Cl)Nc1nnc(NCC2CCCCC2)s1 [compound 439]", "22.5%"],
  ["COc1ccccc1C(=O)Nc1nnc(NCc2ccc(Cl)c(Cl)c2)s1 [compound 452]", "21.3%"],
  ["N#Cc1ccc(C(=O)Nc2nnc(NCCc3c[nH]c4ccccc34)s2)cc1 [compound 82]", "67.7%"],
  ["O=C(Nc1nnc(NCCC(c2ccccc2)c2ccccc2)s1)c1ccc(Br)cc1 [compound 386]", "26.9%"]
]}
